target: CDK5/CDK5R1 (Homo sapiens, UniProt Q00535); construct: Full-length kinases were obtained as plasmids cloned in frame with a terminal NanoLuc-fusion; CS1810C173 (CDK5R1); assay: NanoBRET; conditions: read-out: NanoBRET EC50 ± SEM CDK5/CDK5R1
Sequence (Q00535 whole entry, the tested form may be a part): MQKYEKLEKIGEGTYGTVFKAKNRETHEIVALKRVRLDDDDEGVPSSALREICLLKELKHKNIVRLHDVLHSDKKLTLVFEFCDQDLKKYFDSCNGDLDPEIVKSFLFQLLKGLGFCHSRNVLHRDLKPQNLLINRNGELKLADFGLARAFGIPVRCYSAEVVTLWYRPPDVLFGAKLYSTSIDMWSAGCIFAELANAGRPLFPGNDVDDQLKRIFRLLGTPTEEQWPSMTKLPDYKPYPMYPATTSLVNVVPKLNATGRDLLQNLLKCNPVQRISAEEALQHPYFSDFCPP
Sequence (Q15078 whole entry partner, the tested form may be a part): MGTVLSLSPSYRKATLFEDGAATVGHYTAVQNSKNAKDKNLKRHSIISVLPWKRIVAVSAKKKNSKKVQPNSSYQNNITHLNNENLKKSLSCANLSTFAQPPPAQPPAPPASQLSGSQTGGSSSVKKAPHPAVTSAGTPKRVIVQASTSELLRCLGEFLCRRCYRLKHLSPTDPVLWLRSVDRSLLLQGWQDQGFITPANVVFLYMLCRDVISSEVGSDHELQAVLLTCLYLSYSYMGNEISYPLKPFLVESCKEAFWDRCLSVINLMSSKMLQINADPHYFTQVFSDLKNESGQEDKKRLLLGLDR
EC50: recorded values
ENDPOINT NAME: EC50 (µM)

[
  {
    "COMPOUND": "COC(=O)c1cc(Nc2ccnc(NCc3ccc(NC(=O)OC(C)(C)C)cc3)n2)[nH]n1 [21i]",
    "ENDPOINT NAME": "EC50",
    "UNIT ABBREV": "µM",
    "RESULT": 28.6
  },
  {
    "COMPOUND": "N#CCc1ccc(Nc2nccc(Nc3cc(C4CC4)[nH]n3)n2)cc1 [compound 1, reference compound]",
    "ENDPOINT NAME": "EC50",
    "UNIT ABBREV": "µM",
    "RESULT": 0.0303
  }
]
